- Test Target: HLA-C*07:01 purified from the Steinlin EBV transformed homozygous cell line (human (endogenous in the Steinlin EBV …))
Measure: IC50

Query string: So what's the measured IC50 for this one? SRGTSPARM [SARS-CoV-2 nucleocapsid peptide SRGTSPARM (R203/G204)]
Result string: > 50 µM
